Attribution: the supplement of paper PMC5412046

Consider the following compounds; for each one, report its viability.
System: SB.msgc-1
procedure.text: viability at highest tested concentration (MAXR) relative to DMSO; higher = less cytotoxic
condition.context: SB.msgc-1 (sporadic gastric cancer)
Structures can show the parent of a compound that is named as a salt.
Answer with the value and then the unit.

Before answering, review these 5 worked examples.
INSERT INTO assay_data (compound, readout, measured) VALUES
  ('CN[C@@H]1[C@H](O)[C@H](NC)[C@H]2O[C@@]3(O)C(=O)C[C@@H](C)O[C@H]3O[C@@H]2[C@H]1O [Spectinomycin hydrochloride] (top concentration 46.0829 µM)', 'viability', '6.98%'),
  ('O=C(O)CCc1ccc(NCc2cccc(Oc3ccccc3)c2)cc1 [GW-9508] (top concentration 46.0829 µM)', 'viability', '95.2%'),
  ('CNC(=O)N1\N=C(\C2=CC=C(N)C=C2)C3=CC4=C(OCO4)C=C3CC1C (stereo unspecified) (top concentration 46.0829 µM)', 'viability', '42.3%'),
  ('CC(CCc1ccc(O)cc1)NCCc1ccc(O)c(O)c1 (stereo unspecified) [Dobutamine hydrochloride] (top concentration 46.0829 µM)', 'viability', '87.6%'),
  ('CC(C)(CO)[C@@H](O)C(=O)NCCC(=O)O [Pantothenic acid] (top concentration 46.0829 µM)', 'viability', '106%');

Query :: Please supply the value of reported viability for the item CO[C@H]1C[C@@H]2CC[C@@H](C)[C@@](O)(O2)C(=O)C(=O)N2CCCC[C@H]2C(=O)O[C@H]([C@H](C)C[C@@H]2CC[C@@H](OC(=O)C(C)(CO)CO)[C@H](OC)C2)CC(=O)[C@H](C)/C=C(\C)[C@@H](O)[C@@H](OC)C(=O)[C@H](C)C[C@H](C)/C=C/C=C/C=C/1C [Temsirolimus] (top concentration 46.0829 µM)
Result :: 57%
